# protocol: Plasma protein binding in rat
# Assay type: ADME, cell-free
# conditionInfo: read-out: PPB (converted)
testReadout: fraction unbound
# respond with the number and nothing more

Would you mind telling me what fraction unbound value was observed for `O=c1ncn2nc(Sc3ccc(F)cc3F)ccc2c1-c1c(Cl)cccc1Cl` ?
0.02

---

# protocol: Clearance in BALB/c mouse at 2 mg/kg, iv
# Assay type: ADME, organism-based
# Set-up: dose 2 mg/kg, route intravenous
# conditionInfo: in vivo
testReadout: clearance (mL/min/kg)
Please reply with the bare figure in mL/min/kg and do not write the unit itself.

Give its clearance value. Item: O=c1ncn2nc(Sc3ccc(F)cc3F)ccc2c1-c1c(Cl)cccc1Cl [NEFLAMAPIMOD]
21

---

# testedSystem: Mitogen-activated protein kinase 14 (Homo sapiens, UniProt Q16539)
# Sequence (Q16539 whole entry): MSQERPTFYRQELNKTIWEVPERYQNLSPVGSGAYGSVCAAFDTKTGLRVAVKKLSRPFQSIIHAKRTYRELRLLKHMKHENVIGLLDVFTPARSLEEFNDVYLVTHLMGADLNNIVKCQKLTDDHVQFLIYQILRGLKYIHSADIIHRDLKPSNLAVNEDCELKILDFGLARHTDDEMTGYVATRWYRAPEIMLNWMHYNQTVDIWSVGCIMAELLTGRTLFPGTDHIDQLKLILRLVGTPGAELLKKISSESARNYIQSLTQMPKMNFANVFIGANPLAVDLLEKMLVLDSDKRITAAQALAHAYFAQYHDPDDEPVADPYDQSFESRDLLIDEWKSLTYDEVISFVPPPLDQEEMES
# protocol: Inhibition of p38alpha kinase using KRELVEPLTPSGEAPNQALLR as substrate for 20 mins by lactate dehydrogenase-coupled spectrophotometric assay
testReadout: pIC50
Lab note — pIC50 values are minus log10 of concentrations in M.

Param item = `O=c1ncn2nc(Sc3ccccc3)ccc2c1-c1ccccc1C(F)(F)F` ; retrieve measured pIC50.
4.96

# repeat for `Cc1ccccc1Sc1ccc2c(-c3c(Cl)cccc3Cl)c(=O)ncn2n1`
6.70

Same question, `O=c1ncn2nc(Sc3ccccc3O)ccc2c1-c1c(Cl)cccc1Cl` this time
6.44

---

# protocol: Cmax in BALB/c mouse at 40 mg/kg, po
# Assay type: ADME, organism-based
# Set-up: dose 40 mg/kg, route oral
# conditionInfo: in vivo
testReadout: Cmax (ng/mL)
Numeric only. Scale: ng/mL

Using the record for O=c1ncn2nc(Sc3ccc(F)cc3F)ccc2c1-c1c(Cl)cccc1Cl [NEFLAMAPIMOD] , report its Cmax.
7850

---

# protocol: Clearance in beagle dog at 13.8 mg/kg, iv
# Format: ADME, organism-based, Canis lupus familiaris
# Design: dose 13.8 mg/kg, route intravenous
# conditionInfo: in vivo
testReadout: clearance (mL/min/kg)
Number only, in mL/min/kg; omit the unit.

What measured clearance goes with `O=c1ncn2nc(Sc3ccc(F)cc3F)ccc2c1-c1c(Cl)cccc1Cl` ?
39

---

# testedSystem: Mitogen-activated protein kinase 14 (Homo sapiens, UniProt Q16539)
# protocol: Inhibition of p38alpha in human PBMC assessed as inhibition of LPS-induced IL1beta production after 16 to 18 hrs by ELISA
pIC50: −log10 of the molar value.
Decision: pIC50 >= 6 yields Condition met, all other cases yield Condition not met.

Can `O=c1ncn2nc(Sc3ccccc3)ccc2c1-c1c(Cl)cccc1Cl` be said to have pIC50 at or above 6?
Condition met

Lookup `Cc1ccccc1Sc1ccc2c(-c3c(Cl)cccc3Cl)c(=O)ncn2n1`
Condition met

Item: `Cc1ccc(Sc2ccc3c(-c4c(Cl)cccc4Cl)c(=O)ncn3n2)cc1`
Condition met

Now consider `O=c1ncn2nc(Sc3cccc(F)c3)ccc2c1-c1c(Cl)cccc1Cl` .
Condition met

Next compound: `O=c1ncn2nc(Sc3ccccc3)ccc2c1-c1ccc(Cl)cc1Cl`
Condition not met

`Cc1cc(Cl)ccc1Sc1ccc2c(-c3c(Cl)cccc3Cl)c(=O)ncn2n1` , same question.
Condition met

Now consider `O=c1ncn2nc(Sc3ccccc3)ccc2c1-c1c(F)cccc1F` .
Condition not met

Request: `COc1ccccc1-c1c(=O)ncn2nc(Sc3ccccc3)ccc12`
Condition not met

Moving on to `O=c1ncn2nc(Sc3ccc(F)cc3Cl)ccc2c1-c1c(Cl)cccc1Cl`
Condition met

How about `O=c1ncn2nc(Sc3ccccc3O)ccc2c1-c1c(Cl)cccc1Cl` ?
Condition met

---

# protocol: Half life in BALB/c mouse at 2 mg/kg, iv
# Type: ADME, organism-based
# Design: dose 2 mg/kg, route intravenous
# conditionInfo: in vivo
testReadout: half-life (h)
Form entry: value (h) — number only.

Can you look up the measured half-life of `O=c1ncn2nc(Sc3ccc(F)cc3F)ccc2c1-c1c(Cl)cccc1Cl` for me?
2.6

---

# testedSystem: Cytochrome P450 3A4 (Homo sapiens)
# Sequence (P08684 whole entry): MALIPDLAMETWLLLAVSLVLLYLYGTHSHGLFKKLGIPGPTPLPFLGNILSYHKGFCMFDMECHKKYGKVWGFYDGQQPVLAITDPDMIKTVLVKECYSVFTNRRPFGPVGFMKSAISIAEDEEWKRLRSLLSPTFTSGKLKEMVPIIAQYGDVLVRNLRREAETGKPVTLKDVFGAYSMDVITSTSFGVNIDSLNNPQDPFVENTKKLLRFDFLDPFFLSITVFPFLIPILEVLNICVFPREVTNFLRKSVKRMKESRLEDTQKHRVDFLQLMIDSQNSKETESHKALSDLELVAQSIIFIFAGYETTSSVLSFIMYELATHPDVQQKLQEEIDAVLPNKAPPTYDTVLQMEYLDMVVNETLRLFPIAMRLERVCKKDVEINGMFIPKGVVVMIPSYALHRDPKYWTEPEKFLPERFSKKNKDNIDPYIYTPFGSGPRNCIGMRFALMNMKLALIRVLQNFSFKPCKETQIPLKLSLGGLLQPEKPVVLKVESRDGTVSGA
pIC50: −log10 of the molar value.
testReadout: pIC50

# input compound: `O=c1ncn2nc(Sc3ccc(F)cc3F)ccc2c1-c1c(Cl)cccc1Cl` ; wanted: its pIC50
< 4.40

---

# protocol: Volume of distribution at steady state in beagle dog at 13.8 mg/kg, iv
# Type: ADME, organism-based, Canis lupus familiaris
# Design: dose 13.8 mg/kg, route intravenous
# conditionInfo: in vivo, read-out: Vdss
testReadout: Vd

Given `O=c1ncn2nc(Sc3ccc(F)cc3F)ccc2c1-c1c(Cl)cccc1Cl` , state its recorded Vd.
2.3 L/kg

---

# testedSystem: Cytochrome P450 1A2 (Homo sapiens, UniProt P05177)
# Sequence (P05177 whole entry): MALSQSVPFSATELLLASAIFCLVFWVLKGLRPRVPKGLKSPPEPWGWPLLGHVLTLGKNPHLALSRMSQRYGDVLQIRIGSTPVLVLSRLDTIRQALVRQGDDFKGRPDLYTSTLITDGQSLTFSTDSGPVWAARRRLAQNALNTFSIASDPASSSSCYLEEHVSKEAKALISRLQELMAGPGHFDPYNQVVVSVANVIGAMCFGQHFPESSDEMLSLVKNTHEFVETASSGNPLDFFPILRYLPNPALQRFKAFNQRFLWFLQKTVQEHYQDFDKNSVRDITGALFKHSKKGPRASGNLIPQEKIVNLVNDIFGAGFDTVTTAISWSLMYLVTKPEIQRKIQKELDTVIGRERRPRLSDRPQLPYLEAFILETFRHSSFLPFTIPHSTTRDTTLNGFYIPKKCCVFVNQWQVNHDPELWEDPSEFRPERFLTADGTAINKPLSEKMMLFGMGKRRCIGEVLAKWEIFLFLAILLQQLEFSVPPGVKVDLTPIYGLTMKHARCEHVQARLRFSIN
testReadout: IC50

Find the recorded IC50 belonging to `O=c1ncn2nc(Sc3ccc(F)cc3F)ccc2c1-c1c(Cl)cccc1Cl` and report it.
> 40 µM

---

# protocol: Half life in Sprague-Dawley rat at 4.8 mg/kg, iv
# Assay type: ADME, organism-based
# Design: dose 4.8 mg/kg, route intravenous
# conditionInfo: in vivo
testReadout: half-life (h)
Please respond with the number in h and leave the unit unwritten.

Would you mind telling me what half-life value was observed for O=c1ncn2nc(Sc3ccc(F)cc3F)ccc2c1-c1c(Cl)cccc1Cl [NEFLAMAPIMOD] ?
1.9

---

# protocol: Half life in beagle dog at 13.8 mg/kg, iv
# Assay type: ADME, organism-based, Canis lupus familiaris
# Parameters: dose 13.8 mg/kg, route intravenous
# conditionInfo: in vivo
testReadout: half-life (h)
Respond numerically; units are h and should not be typed.

# input compound: O=c1ncn2nc(Sc3ccc(F)cc3F)ccc2c1-c1c(Cl)cccc1Cl [NEFLAMAPIMOD] ; wanted: its half-life
1.5

---

# protocol: Clearance in Sprague-Dawley rat at 4.8 mg/kg, iv
# Assay type: ADME, organism-based
# Set-up: dose 4.8 mg/kg, route intravenous
# conditionInfo: in vivo
testReadout: clearance (mL/min/kg)
Please state the figure in mL/min/kg; there is no need to write the unit.

Give the measured clearance of `O=c1ncn2nc(Sc3ccc(F)cc3F)ccc2c1-c1c(Cl)cccc1Cl` .
63

---

# protocol: Plasma protein binding in dog
# Assay type: ADME, cell-free, Canis lupus familiaris
# conditionInfo: read-out: PPB (converted)
testReadout: fraction unbound
Answer with a bare number; do not write a unit.

For `O=c1ncn2nc(Sc3ccc(F)cc3F)ccc2c1-c1c(Cl)cccc1Cl` , what is its reported fraction unbound?
0.08

---

# testedSystem: Mitogen-activated protein kinase 14 (Homo sapiens, UniProt Q16539)
# protocol: Inhibition of p38alpha kinase using KRELVEPLTPSGEAPNQALLR as substrate for 20 mins by lactate dehydrogenase-coupled spectrophotometric assay
So I've got a bunch of compounds here, and I need their pIC50 values.
Reminder that pIC50 is minus the log10 of a molar concentration.

What value of pIC50 has been recorded for this entry: `O=c1ncn2nc(Sc3ccc(F)cc3Cl)ccc2c1-c1c(Cl)cccc1Cl`
7.44

Please give the result for `O=c1ncn2nc(Sc3ccccc3)ccc2c1-c1c(Cl)cccc1Cl` too.
6.60

Repeat with `O=c1ncn2nc(Sc3ccccc3)ccc2c1-c1ccc(Cl)cc1Cl`
5.30

How about `COc1ccccc1-c1c(=O)ncn2nc(Sc3ccccc3)ccc12` ?
4.92

Another compound: `O=c1ncn2nc(Sc3ccc(Cl)c(Cl)c3)ccc2c1-c1c(Cl)cccc1Cl`
6.10

Further, for `Cc1ccc(Sc2ccc3c(-c4c(Cl)cccc4Cl)c(=O)ncn3n2)cc1` ?
5.85

Same read-out for `O=c1ncn2nc(Sc3ccccc3)ccc2c1-c1ccccc1Cl` ?
5.39

Ok, now `O=c1ncn2nc(Sc3cccc(Cl)c3)ccc2c1-c1c(Cl)cccc1Cl`
6.55

// repeat for `Cc1ccc(Sc2ccc3c(-c4c(Cl)cccc4Cl)c(=O)ncn3n2)cc1C` and report
5.72

---

# testedSystem: Mitogen-activated protein kinase 14 (Homo sapiens)
# protocol: Inhibition of p38alpha in human PBMC assessed as inhibition of LPS-induced TNFalpha production after 16 to 18 hrs by ELISA
Please go through the items and note down their pIC50.
Lab note: report pIC50 as minus log10 of the concentration in molar units, number only.

Param readout= pIC50; system= Mitogen-activated protein kinase 14 (Homo sapiens); entry= `O=c1ncn2nc(Sc3ccc(F)c(Cl)c3)ccc2c1-c1c(Cl)cccc1Cl` ; returns value.
6.32

For `O=c1ncn2nc(Sc3ccccc3)ccc2c1-c1ccc(Cl)cc1Cl` then?
4.70

Same question for `O=c1ncn2nc(Sc3ccc(Cl)c(Cl)c3)ccc2c1-c1c(Cl)cccc1Cl` please.
5.92

Queued: `O=c1ncn2nc(Sc3ccc(F)cc3)ccc2c1-c1c(Cl)cccc1Cl`
6.53

`O=c1ncn2nc(Sc3ccccc3)ccc2c1-c1c(F)cccc1C(F)(F)F` , same question.
5.51

// repeat for `O=c1ncn2nc(Sc3ccc(F)cc3Cl)ccc2c1-c1c(Cl)cccc1Cl` and report
6.56

Next record, please: `O=c1ncn2nc(Sc3ccccc3)ccc2c1-c1c(F)cccc1F`
4.82

Same read-out for `O=c1ncn2nc(Sc3ccccc3)ccc2c1-c1c(Cl)cccc1Cl` ?
6.34

Another: `O=c1ncn2nc(Sc3cccc(F)c3)ccc2c1-c1c(Cl)cccc1Cl`
6.14

# repeat for `Cc1ccc(Sc2ccc3c(-c4c(Cl)cccc4Cl)c(=O)ncn3n2)cc1C`
5.46

Also, `Cc1ccccc1-c1c(=O)ncn2nc(Sc3ccccc3)ccc12` please.
5.01

Next entry: `Cc1ccc(Sc2ccc3c(-c4c(Cl)cccc4Cl)c(=O)ncn3n2)c(C)c1`
6.49

// repeat for `Cc1ccccc1Sc1ccc2c(-c3c(Cl)cccc3Cl)c(=O)ncn2n1` and report
5.43

Would you kindly repeat that for `CCc1ccccc1Sc1ccc2c(-c3c(Cl)cccc3Cl)c(=O)ncn2n1` ?
5.55

Could you do the same for `O=c1ncn2nc(Sc3ccccc3O)ccc2c1-c1c(Cl)cccc1Cl` , please?
6.31

Next compound up: `Nc1cc(F)ccc1Sc1ccc2c(-c3c(Cl)cccc3Cl)c(=O)ncn2n1`
5.92

Check `Cc1cc(Cl)ccc1Sc1ccc2c(-c3c(Cl)cccc3Cl)c(=O)ncn2n1` too.
6.80
